Data origin, for the record: ChEMBL document CHEMBL5537169

assay-notes: Drug accumulation in CD-1 mouse liver assessed as fold change in drug uptake at 10 mg/kg,po measured at 0.083 to 24 hrs post administration by LC-MS/MS analysis
Assay type: ADME, organism-based
run-parameters: in vivo, time 0.083-24 hrs
value-type: fold change (FC)

COCCCOc1cc2c(nc1OC)-c1cc(=O)c(C(=O)O)cn1[C@H](C(C)C)C2 : 2.6

a = COCCCOc1cc2c(nc1OC)-c1cc(=O)c(C(=O)O)cn1[C@](C)(C(C)C)C2
b = COCCCOc1cc2c(nc1OC)-c1cc(=O)c(C(=O)O)cn1[C@](C)(C(C)(C)C)C2
Q. Could you point out whether the larger fold change (FC) belongs to a or to b ? Mark your answer with the label of the selected entry.
A. b

====

assay-notes: Clearance in CD-1 mouse at 2 mg/kg,iv measured at 0.083 to 24 hrs post administration by LC-MS/MS analysis
Assay type: ADME, organism-based
run-parameters: in vivo, time 0.083-24 hrs
value-type: clearance (mL/min/kg)

Solved entries:
COCCCOc1cc2c(nc1OC)-c1cc(=O)c(C(=O)O)cn1[C@H](C(C)C)C2 : 30
COCCCOc1cc2c(cc1OC)-c1cc(=O)c(C(=O)O)cn1[C@H](C(C)C)C2 : 26
CCc1cc2c(cc1OCCCOC)OC[C@@H](C(C)C)n1cc(C(=O)O)c(=O)cc1-2 : 21

A = COCCCOc1cc2c(nc1OC)-c1cc(=O)c(C(=O)O)cn1[C@](C)(C(C)C)C2
B = COCCCOc1cc2c(cc1C1CC1)-c1cc(=O)c(C(=O)O)cn1[C@H](C(C)C)CO2
C = COCCCOc1cc2c(nc1OC)-c1cc(=O)c(C(=O)O)cn1[C@](C)(C(C)(C)C)C2
D = COCCCOc1cc2c(cc1Cl)-c1cc(=O)c(C(=O)O)cn1[C@H](C(C)C)CO2
Q. In this exercise, place the 4 compounds in ascending sequence of their recorded clearance. Rank them, then answer with their labels in that order.
A. B, D, C, A
(B: 14 mL/min/kg, D: 20 mL/min/kg, C: 29 mL/min/kg, A: 55 mL/min/kg)

====

assay-notes: Half life in Sprague-Dawley rat at 2 mg/kg,iv measured at 0.083 to 24 hrs post administration by LC-MS/MS analysis
Type: ADME, organism-based
run-parameters: in vivo, time 0.083-24 hrs
value-type: half-life (h)

COCCCOc1cc2c(nc1OC)-c1cc(=O)c(C(=O)O)cn1[C@](C)(C(C)(C)C)C2 : 2.9

1 = COCCCOc1cc2c(nc1OC)-c1cc(=O)c(C(=O)O)cn1[C@](C)(C(C)C)C2
2 = COCCCOc1cc2c(cc1OC)-c1cc(=O)c(C(=O)O)cn1[C@H](C(C)C)C2
Q. // compare measured half-life between 1 and 2 ; output the lower one Mark your answer with the label of the selected entry.
A. 2
(2: 1.3 h, 1: 4.4 h)

====

assay-notes: Drug accumulation in Sprague-Dawley rat plasma assessed as fold change in drug uptake at 10 mg/kg,po measured at 0.083 to 24 hrs post administration by LC-MS/MS analysis
Format: ADME, organism-based
run-parameters: in vivo, time 0.083-24 hrs
value-type: fold change (FC)

Solved entries:
COCCCOc1cc2c(cc1OC)-c1cc(=O)c(C(=O)O)cn1[C@H](C(C)C)C2 : 3.4
COCCCOc1cc2c(nc1OC)-c1cc(=O)c(C(=O)O)cn1[C@H](C(C)C)C2 : 8.7

P = COCCCOc1cc2c(nc1OC)-c1cc(=O)c(C(=O)O)cn1[C@](C)(C(C)C)C2
Q = COCCCOc1cc2c(nc1OC)-c1cc(=O)c(C(=O)O)cn1[C@](C)(C(C)(C)C)C2
Q. // compare measured fold change (FC) between P and Q ; output the lower one Mark your answer with the label of the selected entry.
A. P
(P: 2.7, Q: 7.4)

====

assay-notes: Half life in CD-1 mouse at 2 mg/kg,iv measured at 0.083 to 24 hrs post administration by LC-MS/MS analysis
Format: ADME, organism-based
run-parameters: in vivo, time 0.083-24 hrs
value-type: half-life (h)

COCCCOc1cc2c(nc1OC)-c1cc(=O)c(C(=O)O)cn1[C@](C)(C(C)C)C2 : 1.5
COCCCOc1cc2c(nc1OC)-c1cc(=O)c(C(=O)O)cn1[C@H](C(C)C)C2 : 0.9

1 = COCCCOc1cc2c(nc1OC)-c1cc(=O)c(C(=O)O)cn1[C@](C)(C(C)(C)C)C2
2 = COCCCOc1cc2c(cc1OC)-c1cc(=O)c(C(=O)O)cn1[C@H](C(C)C)C2
Q. Could you point out whether the larger half-life belongs to 1 or to 2 ? Mark your answer with the label of the selected entry.
A. 1

====

assay-notes: Drug accumulation in CD-1 mouse plasma assessed as fold change in drug uptake at 10 mg/kg,po measured at 0.083 to 24 hrs post administration by LC-MS/MS analysis
Assay type: ADME, organism-based
run-parameters: in vivo, time 0.083-24 hrs
value-type: fold change (FC)

COCCCOc1cc2c(nc1OC)-c1cc(=O)c(C(=O)O)cn1[C@H](C(C)C)C2 : 8.6

P = COCCCOc1cc2c(nc1OC)-c1cc(=O)c(C(=O)O)cn1[C@](C)(C(C)C)C2
Q = COCCCOc1cc2c(nc1OC)-c1cc(=O)c(C(=O)O)cn1[C@](C)(C(C)(C)C)C2
Q. // compare measured fold change (FC) between P and Q ; output the lower one Mark your answer with the label of the selected entry.
A. P
(P: 0.1, Q: 4)

====

We begin with a simple list: items and their reported IC50.
system: Cytochrome P450 1A2 (Homo sapiens)
Sequence (P05177 whole entry): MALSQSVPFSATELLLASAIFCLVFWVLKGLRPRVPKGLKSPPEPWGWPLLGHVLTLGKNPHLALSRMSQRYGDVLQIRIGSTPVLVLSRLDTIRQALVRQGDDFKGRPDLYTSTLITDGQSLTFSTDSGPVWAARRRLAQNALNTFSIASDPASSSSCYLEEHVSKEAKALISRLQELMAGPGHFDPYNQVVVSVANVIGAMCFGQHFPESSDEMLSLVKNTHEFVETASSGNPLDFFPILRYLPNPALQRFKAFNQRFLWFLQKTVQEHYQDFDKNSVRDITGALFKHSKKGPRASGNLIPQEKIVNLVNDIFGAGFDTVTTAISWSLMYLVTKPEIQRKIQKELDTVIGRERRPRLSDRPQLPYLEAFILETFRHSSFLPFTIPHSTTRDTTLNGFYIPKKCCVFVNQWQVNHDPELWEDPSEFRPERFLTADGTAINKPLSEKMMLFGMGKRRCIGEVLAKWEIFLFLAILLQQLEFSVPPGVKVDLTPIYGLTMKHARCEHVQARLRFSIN

COCCCOc1cc2c(cc1OC)-c1cc(=O)c(C(=O)O)cn1[C@H](C(C)C)C2 : > 25 µM

Proceed to the following item.
Q. I would be grateful if you could share the reported IC50 for COCCCOc1cc2c(nc1OC)-c1cc(=O)c(C(=O)O)cn1[C@H](C(C)C)C2 .
A. > 25 µM

====

Tested on: HepG2 2.2.15
assay-notes: Cytotoxicity against human HepG2.2.15 cells by Cell-titer Glo luminescent assay
Assay type: functional
value-type: CC50

COCCOc1cc2c(cc1Cl)-c1cc(=O)c(C(=O)O)cn1[C@@H](C(C)C)CO2 : > 50 µM
COc1cc2c(nc1OC)-c1cc(=O)c(C(=O)O)cn1[C@@H](C(C)C)C2 : > 50 µM

Proceed to the following item.
Q. I would be grateful if you could share the reported CC50 for COCCCOc1cc2c(nc1OC)-c1cc(=O)c(C(=O)O)cn1[C@](C)(C(C)(C)C)C2 .
A. 41 µM

====

assay-notes: AUCinfinity in CD-1 mouse at 2 mg/kg,iv measured at 0.083 to 24 hrs post administration by LC-MS/MS analysis
Format: ADME, organism-based
run-parameters: in vivo, time 0.083-24 hrs
value-type: AUC(0-inf) (ng·h/mL)

COCCCOc1cc2c(nc1OC)-c1cc(=O)c(C(=O)O)cn1[C@H](C(C)C)C2 : 1150

P = COCCCOc1cc2c(nc1OC)-c1cc(=O)c(C(=O)O)cn1[C@](C)(C(C)(C)C)C2
Q = COCCCOc1cc2c(nc1OC)-c1cc(=O)c(C(=O)O)cn1[C@](C)(C(C)C)C2
Q. Could you point out whether the larger AUC(0-inf) belongs to P or to Q ? Mark your answer with the label of the selected entry.
A. P
(P: 914 ng·h/mL, Q: 615 ng·h/mL)

====

assay-notes: Half life in CD-1 mouse at 10 mg/kg,po measured at 0.083 to 24 hrs post administration by LC-MS/MS analysis
Assay type: ADME, organism-based
run-parameters: in vivo, time 0.083-24 hrs
value-type: half-life (h)

Solved entries:
CCc1cc2c(cc1OCCCOC)OC[C@@H](C(C)C)n1cc(C(=O)O)c(=O)cc1-2 : 0.8
COCCCOc1cc2c(cc1OC)-c1cc(=O)c(C(=O)O)cn1[C@H](C(C)C)C2 : 2
COCCCOc1cc2c(nc1OC)-c1cc(=O)c(C(=O)O)cn1[C@](C)(C(C)C)C2 : 4.5
COCCCOc1cc2c(cc1C1CC1)-c1cc(=O)c(C(=O)O)cn1[C@H](C(C)C)CO2 : 0.9
COCCCOc1cc2c(nc1OC)-c1cc(=O)c(C(=O)O)cn1[C@H](C(C)C)C2 : 5.8

A = COCCCOc1cc2c(nc1OC)-c1cc(=O)c(C(=O)O)cn1[C@](C)(C(C)(C)C)C2
B = COCCCOc1cc2c(cc1Cl)-c1cc(=O)c(C(=O)O)cn1[C@H](C(C)C)CO2
Q. Could you point out whether the larger half-life belongs to A or to B ? Mark your answer with the label of the selected entry.
A. A
